- test.system: SARS-CoV-2 Main Protease (SARS-CoV-2)
- settings: 20.0 µM
property.name: inhibition (%)
Give bare numbers, in %.

Completed entries (count: 3):
Cc1cccc(CC(=O)Nc2cccnc2C#N)c1 | 0
Cc1ccnc(NC(=O)Cc2ccc3ccccc3c2)c1 | 0
CC(=O)N1CCN(S(=O)(=O)c2ccsc2)CC1 | 0

Could I get inhibition for every one of these entries?
1. O=C(CCl)N1CCN(Cc2cccc(Cl)c2)CC1
2. Cc1cccc(NC2CCN(c3ccc(S(N)(=O)=O)cc3)CC2)c1
3. C=CC(=O)N(c1ccc(C(C)(C)C)cc1)C(C(=O)NC(C)(C)C)c1cncc(OC)c1 (configuration not stated)
4. N#Cc1cccc(NC(=O)Cc2c[nH]c3ncccc23)c1

### Response
[99.8, 39.4, 0.0741, 0]
